Where do these numbers come from? They come from patent US6034087A.

# assayComment: Cytotoxic Concentration in HepG2 2. 2. 15 cell line
# Assay type: cell-based
# testParameters: human, hepg2 2.2.15 cells
measuredMetric: CC50

Using known records, supply CC50 for Cc1cn(C2COC(CO)CO2)c(=O)[nH]c1=O (stereo not shown)
846 µg/mL
